System: HepaRG spheroids
Assay: Combined HCI (HCS) and cellular ATP 3D assay in HepaRG spheroids
Conditions: HepaRG; all endpoints; Cmax min used
attribute_measured: HepaRG Cmax min All

Study these solved cases before continuing.
O=C1CN(/N=C/c2ccc(-c3ccc([N+](=O)[O-])cc3)o2)C(O)=N1 | -ve
CC[C@H]1OC(=O)[C@H](C)[C@@H](O[C@H]2C[C@@](C)(OC)[C@@H](O)[C@H](C)O2)[C@H](C)[C@@H](O[C@@H]2O[C@H](C)C[C@H](N(C)C)[C@H]2O)[C@](C)(O)C[C@@H](C)C(=O)[C@H](C)[C@@H](O)[C@]1(C)O | +ve
C[N+](C)(C)CC(=O)O [betaine, reference compound] | -ve
O=C(O)Cc1ccccc1Nc1c(Cl)cccc1Cl | +ve
O=c1[nH]c(=O)n([C@@H]2O[C@H](CO)[C@@H](O)[C@@H]2F)cc1I | +ve

INPUT: Recorded HepaRG Cmax min All for `CCOC(=O)CN[C@@H](C(=O)N1CC[C@H]1C(=O)NCc1ccc(/C(N)=N\O)cc1)C1CCCCC1` , please?
OUTPUT: -ve

INPUT: Return reported HepaRG Cmax min All; argument: NNC(=O)c1ccncc1 [isoniazid, reference compound]
OUTPUT: -ve

INPUT: I have this compound here, CC(COc1ccccc1)N(CCCl)Cc1ccccc1 (stereo not shown) , and I need its recorded HepaRG Cmax min All.
OUTPUT: -ve

INPUT: What does the data say about its HepaRG Cmax min All? Entry: `CC(=O)Oc1ccccc1C(=O)O`
OUTPUT: +ve
